- Test system: M14 melanoma
- Test protocol: NCI-60 one-dose screen, 48 h
- Condition: 10 µM unless noted
The panel holds about 83,000 compounds, 20% with a hit somewhere; the sample as a whole holds those more often. The source made the active and inactive calls. How the source made its calls: active means growth percent below 10; inactive means the rest.
Classes used: active, inactive

>>> cat("O=C1Nc2ccccc2/C1=C/C(=N/c1nnc(-c2ccccc2)s1)c1ccccc1")
"inactive"
>>> cat("O=c1c(/C=C/c2ccco2)nnc(SCCN2CCOCC2)n1/N=C/c1ccc([N+](=O)[O-])cc1")
"inactive"
>>> cat("CCCCCCCCCCCCCCCCNCCC[C@@H](C)[C@H]1CC[C@H]2[C@@H]3[C@H](OCCCN)C[C@@H]4C[C@H](OCCCN)CC[C@]4(C)[C@H]3C[C@H](OCCCN)[C@]12C")
"active"
>>> cat("CNC(=O)c1cc(Oc2ccc3nc(NC(=O)Nc4ccc(CN5CCOCC5)c(C(F)(F)F)c4)sc3c2)ccn1")
"inactive"
>>> cat("CCCCCCCCCc1cc(CN2CCCCC2)c(O)c(CN2CCCCC2)c1")
"inactive"
>>> cat("Cc1cc2cc3cc(C)c(N(C)C)cc3nc2cc1N(C)C")
"inactive"
>>> cat("NC1=CSC2=N/C(=C\\c3ccc(Cl)cc3)C(=O)N12")
"inactive"
>>> cat("COCCCNc1nc(NC(=O)c2ccc(F)cc2C)cc(-c2cccnc2)n1")
"inactive"
>>> cat("CC(C)c1c(C(=O)Nc2ccccc2)c(-c2ccccc2)c(-c2ccc(F)cc2)n1CC[C@@H]1CC=CC(=O)O1")
"active"

====

- Test system: HOP-62 NSCLC
- Test protocol: NCI-60 one-dose screen, 48 h (100 = growth as untreated, 0 = no growth, -100 = all killed)
- Condition: 10 µM unless noted
About 83,000 compounds went through this panel and 20% of them were active in at least one assay; those are over-represented in the sample as a whole.
Endpoint: growth (%)

>>> value_reported("Cc1ccc(SCN2CCN(c3cccc(Cl)c3)CC2)cc1")
114
>>> value_reported("COc1ccc2nc3cc(Cl)ccc3c(N3CCN(c4nccc(Nc5ccccc5)n4)CC3)c2c1")
79.2
>>> value_reported("Cc1cc2cc3cc(C)c(N(C)C)cc3nc2cc1N(C)C")
23.1
>>> value_reported("CSc1[nH]c2ncnc(N)c2c1C#N")
94.9
>>> value_reported("O=C1C=CC(=O)c2c1nc1n2CCCC1")
80
>>> value_reported("O=C1/C(=C/c2ccccc2)CN(CCC(=O)N2C/C(=C\\c3ccccc3)C(=O)/C(=C/c3ccccc3)C2)C/C1=C\\c1ccccc1")
118
>>> value_reported("CC(=O)/C(=C/c1cccc(Cl)c1)C(=O)c1ccccc1")
95.7
>>> value_reported("CSc1nc2sc3c(c2c(=O)n1-c1ccc(C(C)C)cc1)CCC(=O)C3")
15.2
>>> value_reported("O=C(Nc1ccc(Nc2cc(Nc3ccccc3)ncn2)cc1)Nc1cc(C(F)(F)F)ccc1F")
68.6
>>> value_reported("COc1cccc(NC(=O)c2sc3nc4c(cc3c2N)CN(Cc2ccccc2)CC4)c1")
31.4
>>> value_reported("CCCCCCCCCCCCNC(=O)[C@H]1CSC(c2ccc(OC)c(F)c2)N1 (some centres undefined)")
-81.8
>>> value_reported("CC1=C(C)C(=O)OC([C@](C)(O)[C@]2(O)CC[C@@]3(O)[C@@H]4C[C@H]5O[C@]56CC=CC(=O)[C@]6(C)[C@H]4CC[C@]23COC(=O)c2ccc(C)o2)C1 (some centres undefined)")
-73.8
>>> value_reported("CC(=O)O[C@H]1CC[C@]2(C)[C@H]3CC[C@@H]4[C@H]5[C@H](C(C)C)CC[C@]5(C(=O)OCC(CO)(CO)N=C(N)N)CC[C@@]4(C)[C@]3(C)CC[C@H]2C1(C)C")
86.1
>>> value_reported("O=c1c2cccc3c(Nc4ccccn4)ccc(c32)c2nc3ccccc3n12")
67.8

Where do the numbers come from? From PubChem BioAssay (NCI).
